- measured-on: DNA topoisomerase II (Homo sapiens) (UniProt P11388+Q02880)
- test-protocol: Percentage of intracellular covalent DNA-topoisomerase II complexes formed
- Assay type: cell-based
Known Complex formation of a selection of compounds
measurement-label: Complex formation (%)

COc1cc([C@@H]2c3cc(O)c(O)cc3[C@@H](Nc3ccccc3)[C@H]3COC(=O)[C@H]23)cc(OC)c1OC | 9
COc1cc([C@@H]2c3cc4c(cc3[C@@H](N[C@H](C)CO)[C@H]3COC(=O)[C@H]23)OCO4)cc(OC)c1O | 162
COc1cc([C@@H]2c3cc4c(cc3[C@@H](Nc3cccc([N+](=O)[O-])c3)[C@H]3COC(=O)[C@H]23)OCO4)cc(OC)c1O | 230
COc1cc([C@@H]2c3cc4c(cc3[C@@H](Nc3ccc(Br)cc3)[C@H]3COC(=O)[C@H]23)OCO4)cc(OC)c1O | 179
COc1cc([C@@H]2c3cc4c(cc3[C@@H](O[C@@H]3O[C@@H]5CO[C@@H](C)O[C@H]5[C@H](O)[C@H]3O)[C@H]3COC(=O)[C@H]23)OCO4)c(Cl)c(OC)c1O | 6.1
COc1cc([C@@H]2c3cc4c(cc3[C@@H](Nc3cccc(O)c3)[C@H]3COC(=O)[C@H]23)OCO4)cc(OC)c1O | 290
COc1cc([C@@H]2c3cc4c(cc3[C@@H](NC(=O)c3cccc([N+](=O)[O-])c3)[C@H]3COC(=O)[C@H]23)OCO4)cc(OC)c1O | 86

---

- measured-on: DNA topoisomerase II (Homo sapiens) (UniProt P11388+Q02880)
- test-protocol: Percentage of intracellular covalent DNA-topoisomerase II complexes formed
- Format: cell-based
measurement-label: Complex formation (%)

COc1cc([C@@H]2c3cc4c(cc3[C@@H](Nc3cccnc3)[C@H]3COC(=O)[C@H]23)OCO4)cc(OC)c1O | 148
COc1cc([C@@H]2c3cc4c(cc3C(Nc3ccc(F)cc3)[C@H]3COC(=O)[C@H]23)OCO4)cc(O)c1O (stereo partly drawn) | 117
COc1cc([C@@H]2c3cc(O)c(O)cc3[C@@H](Nc3cccc(O)c3)[C@H]3COC(=O)[C@H]23)cc(OC)c1OC | 4
COC(=O)c1ccc(NC2c3cc4c(cc3[C@@H](c3cc(O)c(O)c(OC)c3)[C@H]3C(=O)OC[C@H]23)OCO4)cc1 (stereo partly drawn) | 175
COc1cc([C@@H]2c3cc4c(cc3C(Nc3ccc(C#N)cc3)[C@H]3COC(=O)[C@H]23)OCO4)cc(O)c1O (stereo partly drawn) | 146
COc1cc([C@@H]2c3cc4c(cc3[C@@H](NCc3ccccc3F)[C@H]3COC(=O)[C@H]23)OCO4)cc(OC)c1O | 126
CCOC(=O)c1ccc(NC2c3cc(OC)c(OC)cc3[C@@H](c3cc(OC)c(O)c(OC)c3)[C@H]3C(=O)OC[C@H]23)cc1 (stereo partly drawn) | 127
COC(=O)c1cccc(N[C@@H]2c3cc4c(cc3[C@@H](c3cc(OC)c(O)c(OC)c3)[C@H]3C(=O)OC[C@@H]32)OCO4)c1 | 249
COc1cc([C@@H]2c3cc4c(cc3[C@@H](NCc3ccc(C(F)(F)F)cc3)[C@H]3COC(=O)[C@H]23)OCO4)cc(OC)c1O | 99
CCCN[C@@H]1c2cc3c(cc2[C@@H](c2cc(OC)c(O)c(OC)c2)[C@H]2C(=O)OC[C@@H]21)OCO3 | 69.7
COc1cc2c(cc1OC)[C@@H](Nc1ccc([N+](=O)[O-])cc1)[C@H]1COC(=O)[C@@H]1[C@@H]2c1cc(OC)c(OC)c(OC)c1 | 8
CCOC(=O)c1ccc(NC2c3cc(O)c(O)cc3[C@@H](c3cc(OC)c(OC)c(OC)c3)[C@H]3C(=O)OC[C@H]23)cc1 (stereo partly drawn) | 22
COc1cc([C@@H]2c3cc(O)c(O)cc3C(Nc3ccc(C#N)cc3)[C@H]3COC(=O)[C@H]23)cc(OC)c1O (stereo partly drawn) | 62
COc1cc([C@@H]2c3cc4c(cc3[C@@H](Nc3cccc(C#N)c3)[C@H]3COC(=O)[C@H]23)OCO4)cc(OC)c1O | 137
COc1cc([C@@H]2c3cc4c(cc3[C@@H](NC(=O)c3ccc([N+](=O)[O-])cc3)[C@H]3COC(=O)[C@H]23)OCO4)cc(OC)c1O | 160
COc1cc([C@@H]2c3cc4c(cc3[C@@H](Nc3ccccc3O)[C@H]3COC(=O)[C@H]23)OCO4)cc(OC)c1O | 151
COc1cc([C@@H]2c3cc4c(cc3[C@@H](NC(=O)c3cccc(F)c3)[C@H]3COC(=O)[C@H]23)OCO4)cc(OC)c1O | 116
CCOC(=O)c1ccc(NC2c3cc(O)c(O)cc3[C@@H](c3cc(OC)c(O)c(OC)c3)[C@H]3C(=O)OC[C@H]23)cc1 (stereo partly drawn) | 138
COC1=CC([C@@H]2c3cc4c(cc3C(NC(=O)N(CCCl)N=O)[C@H]3COC(=O)[C@H]23)OCO4)=CC(=O)C1=O (stereo partly drawn) | 7
COc1cc([C@@H]2c3cc4c(cc3[C@@H](NCc3ccccc3)[C@H]3COC(=O)[C@H]23)OCO4)cc(OC)c1O | 181
CCC(C)N[C@@H]1c2cc3c(cc2[C@@H](c2cc(OC)c(O)c(OC)c2)[C@H]2C(=O)OC[C@@H]21)OCO3 (stereo partly drawn) | 73
COc1cc([C@@H]2c3cc4c(cc3[C@@H](NC(=O)c3ccc(OC(C)=O)cc3)[C@H]3COC(=O)[C@H]23)OCO4)cc(OC)c1O | 137
COc1cc([C@@H]2c3cc4c(cc3[C@@H](NCc3cccc(N)c3)[C@H]3COC(=O)[C@H]23)OCO4)cc(OC)c1O | 191
COC(=O)c1cc(N[C@@H]2c3cc4c(cc3[C@@H](c3cc(OC)c(O)c(OC)c3)[C@H]3C(=O)OC[C@@H]32)OCO4)ccc1O | 83
COc1cc([C@@H]2c3cc4c(cc3[C@@H](Nc3cccc(CO)c3)[C@H]3COC(=O)[C@H]23)OCO4)cc(OC)c1O | 235
COc1cc([C@@H]2c3cc4c(cc3[C@@H](Nc3ccc(NC(=O)C56CCC(C)(C(=O)O5)C6(C)C)cc3)[C@H]3COC(=O)[C@H]23)OCO4)cc(OC)c1O (stereo partly drawn) | 88
COc1cc([C@@H]2c3cc4c(cc3[C@@H](Nc3ccc(I)cc3)[C@H]3COC(=O)[C@H]23)OCO4)cc(OC)c1O | 64
COc1cc([C@@H]2c3cc4c(cc3[C@@H](O[C@@H]3O[C@@H]5CO[C@@H](C)O[C@H]5[C@H](O)[C@H]3O)[C@H]3COC(=O)[C@H]23)OCO4)cc(OC)c1O | 100

---

Known Complex formation of a selection of compounds
- measured-on: DNA topoisomerase II (Homo sapiens) (UniProt P11388+Q02880)
- test-protocol: Percentage of intracellular covalent DNA-topoisomerase II complexes formed
- Format: cell-based
measurement-label: Complex formation (%)

COc1cc([C@@H]2c3cc4c(cc3[C@@H](NC(=O)c3ccccc3)[C@H]3COC(=O)[C@H]23)OCO4)cc(OC)c1O | 177
COc1cc([C@@H]2c3cc(O)c(O)cc3[C@@H](Nc3ccc([N+](=O)[O-])cc3)[C@H]3COC(=O)[C@H]23)cc(OC)c1O | 99
COc1cc([C@@H]2c3cc4c(cc3[C@@H](Nc3ccc(NC(=O)c5cc(NC(=O)c6cc([N+](=O)[O-])cn6C)cn5C)cc3)[C@H]3COC(=O)[C@H]23)OCO4)cc(OC)c1O | 26
COc1cc([C@@H]2c3cc4c(cc3[C@@H](Nc3cccc(Br)c3)[C@H]3COC(=O)[C@H]23)OCO4)cc(OC)c1O | 62
COc1cc2c(cc1OC)[C@@H](c1cc(OC)c(O)c(OC)c1)[C@H]1C(=O)OC[C@@H]1C2Nc1ccc(C#N)cc1 (some centres undefined) | 125
COC(=O)c1ccc(N[C@@H]2c3cc4c(cc3[C@@H](c3cc(OC)c(O)c(OC)c3)[C@H]3C(=O)OC[C@@H]32)OCO4)cc1 | 207
COc1cc2c(cc1OC)[C@@H](c1cc(OC)c(OC)c(OC)c1)[C@H]1C(=O)OC[C@@H]1C2Nc1ccc(C#N)cc1 (some centres undefined) | 12
COc1cc([C@@H]2c3cc4c(cc3[C@@H](Nc3ccc(Oc5ccccc5)cc3)[C@H]3COC(=O)[C@H]23)OCO4)cc(OC)c1O | 97
COc1cc([C@@H]2c3cc(O)c(O)cc3[C@@H](Nc3cccc(O)c3)[C@H]3COC(=O)[C@H]23)cc(OC)c1O | 18
COc1cc([C@@H]2c3cc4c(cc3C(Nc3ccc(CC#N)cc3)[C@H]3COC(=O)[C@H]23)OCO4)cc(O)c1O (some centres undefined) | 109
COc1cc([C@@H]2c3cc4c(cc3[C@@H](NC(=O)c3ccccc3F)[C@H]3COC(=O)[C@H]23)OCO4)cc(OC)c1O | 128
CCOC(=O)c1ccc(NC2c3cc(OC)c(OC)cc3[C@@H](c3cc(OC)c(OC)c(OC)c3)[C@H]3C(=O)OC[C@H]23)cc1 (some centres undefined) | 9
COc1cc([C@@H]2c3cc4c(cc3[C@@H](Sc3ccc(O)cc3)[C@H]3COC(=O)[C@H]23)OCO4)cc(OC)c1O | 10
COc1cc([C@@H]2c3cc(O)c(O)cc3C(Nc3ccc(F)cc3)[C@H]3COC(=O)[C@H]23)cc(OC)c1OC (some centres undefined) | 11
